- Test system: SK-MEL-2 melanoma
- procedureSummary: NCI tumour cell line growth inhibition, 48 h
Kindly state TGI for each of the entries shown.
Your answer is read as µM, so omit the unit and give the number.

## Input Item: CSc1nc(NC2CC2)c2c(n1)Sc1nc3ccccc3n1N=C2 Test system: SK-MEL-2 melanoma Read-out: TGI Value: ?
## Output 82.4

## Input Item: COc1ccc(/C(C#N)=C/c2nc3c(N4CCOCC4)nc(Cl)nc3n2C)cc1OC Test system: SK-MEL-2 melanoma Read-out: TGI Value: ?
## Output 1.27

---

- System: K-562 leukemia
- procedureSummary: NCI tumour cell line growth inhibition, 48 h
quantity: TGI

## Input Look up TGI for this compound: CCCCCCCCOCC(O)COC (stereo unspecified)
## Output > 100 µM

## Input Look up TGI for this compound: NC1=CN2c3ccccc3N(CC(=O)N3CCOCC3)C2C=C1 (stereo unspecified)
## Output > 100 µM

## Input Look up TGI for this compound: COc1ccc(NC(=O)CC(=O)n2nc(-c3ccccc3)c(N=Nc3ccc(C)cc3)c2-c2ccccc2)cc1
## Output > 100 µM

## Input Look up TGI for this compound: CCOC(=O)Cn1c(=O)c2cc(C)cc3c(Cl)nc4c(OC)c(OC)cc1c4c32
## Output > 100 µM

## Input Look up TGI for this compound: Brc1ccc2c(c1)[C@H]1CCc3c([nH]c4ccccc34)[C@H]1N2
## Output 39.8 µM

## Input Look up TGI for this compound: NCCCCN(CCCN)C(=O)OCc1ccccc1
## Output > 100 µM
